The measured values listed here are drawn from ChEMBL document CHEMBL4811291.

system: Human immunodeficiency virus; assay: Reactivation of HIV latency infected in human 2C4 cells in presence of 0.1 % NHS by luciferase reporter gene assay; format: functional, organism-based; settings: Human immunodeficiency virus 1, 2C4
pEC50: −log10 of the molar value.
Exercise: state measured pEC50 for each of the molecules provided.

Record CCC(=O)CCCCC[C@@H]1NC(=O)[C@H]2CC23CCN(CCCCCOc2ccc4cc(ccc4n2)-c2cnc1o2)CC3 , field pEC50: < 4.40

Record CCC(=O)CCCCC[C@@H]1NC(=O)[C@H]2CC23CCN(CCOCCn2ccc4cc(ccc4c2=O)-c2cnc1[nH]2)CC3 , field pEC50: < 4.40

Record CCC(=O)CCCCC[C@@H]1NC(=O)CN(C)CCCCOCCCCn2ccc3cc(ccc3c2=O)-c2cnc1[nH]2 , field pEC50: 5.60
